Test system: HOP-92
Experiment: Growth inhibition of human HOP92 cells at 10 uM after 48 hrs by SRB assay
Type: functional
Conditions: HOP-92, 48 h, read-out: GI
# class assignment by measured inhibition of growth at 10 µM: lo = under 40%, med = from 40% up to 50%, hi = 50% and over

Answered cases to consult:
O=c1c2cccc3c(N4CCCC4)ccc(c32)c2nc3ccccc3n12: hi
O=c1c2cccc3c(Nc4ccc(Br)cn4)ccc(c32)c2nc3ccccc3n12: lo
O=c1c2cccc3c(Nc4ccc(F)cc4)ccc(c32)c2nc3ccccc3n12: med
O=c1c2cccc3c(Nc4ccccn4)ccc(c32)c2nc3ccccc3n12: med
O=c1c2cccc3c(Nc4c(F)cccc4F)ccc(c32)c2nc3ccccc3n12: lo

Place this compound in its band: Nc1ccc(Sc2ccc3c4c2cccc4c(=O)n2c4ccccc4nc32)cc1
hi

Then CCCCNc1ccc2c3c1cccc3c(=O)n1c3ccccc3nc21 ?
lo

###

Test system: OVCAR-8
Assay: Growth inhibition of human OVCAR8 cells at 10 uM after 48 hrs by SRB assay
Type: functional
Conditions: OVCAR-8, 48 h, read-out: GI
parameter-measured: inhibition of growth at 10 µM

State the recorded inhibition of growth at 10 µM for this entry: O=c1c2cccc3c(Nc4ccc(F)cc4)ccc(c32)c2nc3ccccc3n12
< 20%

###

Items are presented alongside their recorded inhibition of growth at 10 µM.
System: HL-60(TB)
Test: Growth inhibition of human HL-60(TB) cells at 10 uM after 48 hrs by SRB assay
Type: functional
Conditions: HL-60, 48 h, read-out: GI
Express the result in % but write the number alone.

O=c1c2cccc3c(Nc4ccccn4)ccc(c32)c2nc3ccccc3n12: 37.7
O=c1c2cccc3c(NC4CCCCC4)ccc(c32)c2nc3ccccc3n12: 37.4
Nc1ccc(Sc2ccc3c4c2cccc4c(=O)n2c4ccccc4nc32)cc1: 81.8
O=c1[nH]cc(F)c(=O)[nH]1: 47.9
O=c1c2cccc3c(N4CCCC4)ccc(c32)c2nc3ccccc3n12: 28

// next item, inhibition of growth at 10 µM requested
Using the record for CCCCNc1ccc2c3c1cccc3c(=O)n1c3ccccc3nc21 , report its inhibition of growth at 10 µM.
36.6

###

Entries and their measured inhibition of growth at 10 µM follow.
System: IGROV-1
Assay: Growth inhibition of human IGROV1 cells at 10 uM after 48 hrs by SRB assay
Format: functional
Conditions: IGROV-1, 48 h, read-out: GI
Express your answer in %, writing the number without its unit.

Consider the following illustrative entries.
O=c1[nH]cc(F)c(=O)[nH]1: 51.2
CCCCNc1ccc2c3c1cccc3c(=O)n1c3ccccc3nc21: 58.2
O=c1c2cccc3c(Nc4ccccn4)ccc(c32)c2nc3ccccc3n12: 43.4
O=c1c2cccc3c(N4CCCC4)ccc(c32)c2nc3ccccc3n12: 42.9
O=c1c2cccc3c(Nc4ccc(Br)cn4)ccc(c32)c2nc3ccccc3n12: 51.1

Please examine the following record next.
Please look up its inhibition of growth at 10 µM: O=c1c2cccc3c(NC4CCCCC4)ccc(c32)c2nc3ccccc3n12
58.8

###

Tested on: HCT-15
Assay: Growth inhibition of human HCT15 cells at 10 uM after 48 hrs by SRB assay
Assay type: functional
Conditions: HCT-15, 48 h, read-out: GI
Here, each record is paired with measured inhibition of growth at 10 µM data.
The reply should contain only the number, in %.

Field: example entries. Status: answers known.
O=c1[nH]cc(F)c(=O)[nH]1: 26.5
O=c1c2cccc3c(Nc4ccc(F)cc4)ccc(c32)c2nc3ccccc3n12: 28.9
O=c1c2cccc3c(N4CCCC4)ccc(c32)c2nc3ccccc3n12: 21.4
CCCCNc1ccc2c3c1cccc3c(=O)n1c3ccccc3nc21: 23.8
O=c1c2cccc3c(Nc4ccccn4)ccc(c32)c2nc3ccccc3n12: 40.8

I'd like to know its inhibition of growth at 10 µM. The compound in question is Nc1ccc(Sc2ccc3c4c2cccc4c(=O)n2c4ccccc4nc32)cc1
59.5

Thanks! And O=c1c2cccc3c(NC4CCCCC4)ccc(c32)c2nc3ccccc3n12 ?
25.2

Entry O=c1c2cccc3c(Nc4c(F)cccc4F)ccc(c32)c2nc3ccccc3n12 please
24.5

Follow-up entry: O=c1c2cccc3c(Nc4ccc(Br)cn4)ccc(c32)c2nc3ccccc3n12
28
